# EXPERIMENT_SUMMARY: clinical
# TEST_SETTINGS: human, in vivo, iv, Vdss
# reported Vd; entries follow
RECORDED_METRIC: Vd (L/kg)

* Cn1cc(NC(=O)Nc2cc(C(=O)Nc3cc(C(=O)Nc4ccc5cc(S(=O)(=O)O)cc(S(=O)(=O)O)c5c4)n(C)c3)n(C)c2)cc1C(=O)Nc1cc(C(=O)Nc2ccc3cc(S(=O)(=O)O)cc(S(=O)(=O)O)c3c2)n(C)c1 | 0.27
* CC(C)=CCN1CC[C@]2(C)c3cc(O)ccc3C[C@H]1[C@H]2C [(+)-PENTAZOCINE] | 3.4
* CC1(C)O[C@@H]2C[C@H]3[C@@H]4CCC5=CC(=O)C=C[C@]5(C)[C@@]4(F)[C@@H](O)C[C@]3(C)[C@]2(C(=O)CO)O1 [TRIAMCINOLONE ACETONIDE] | 1.4
* CC1(C)S[C@@H]2[C@H](/N=C/N3CCCCCC3)C(=O)N2[C@H]1C(=O)O [AMDINOCILLIN] | 0.37
* O=NN(CCCl)C(=O)NCCCl [CARMUSTINE] | 1.2
* C=CC1=C(C(=O)O)N2C(=O)[C@@H](NC(=O)/C(=N\OCC(=O)O)c3csc(N)n3)[C@H]2SC1 [CEFIXIME] | 0.24
* CN1CCN(c2c(F)cc3c(=O)c(C(=O)O)cn(CCF)c3c2F)CC1 [FLEROXACIN] | 1.6
